tested on: Escherichia coli TOP10; assay: shrunken log2 fold change of peptide-encoding DNA abundance (4.5 h post-induction vs induction); higher = less antimicrobial activity (less host growth inhibition); details: time post-induction: 4.5 h; library: site-saturation at positions 5, 18, 19, 20
The following sequences are shown together with reported shrunken log2 fold change values.
measured-attribute: shrunken log2 fold change

sequence-text: RRIRFRPPRLPRPRPRPFTNPRP
result-value: -0.125
//
sequence-text: RRIRNRPPRLPRPRPRPREIPRP
result-value: 0.0831
//
sequence-text: RRIRHRPPRLPRPRPRPYPNPRP
result-value: -0.014
//
sequence-text: RRIRLRPPRLPRPRPRPQFIPRP
result-value: -0.433
//
sequence-text: RRIRVRPPRLPRPRPRPKEWPRP
result-value: 0.146
//
sequence-text: RRIRHRPPRLPRPRPRPGSSPRP
result-value: 0.0127

====

system: Escherichia coli TOP10; assay: shrunken log2 fold change of peptide-encoding DNA abundance (4.5 h post-induction vs induction); higher = less antimicrobial activity (less host growth inhibition); conditions: time post-induction: 4.5 h; library: site-saturation at positions 5, 18, 19, 20
// thresholds for shrunken log2 fold change classes: bucket A (below -0.2), bucket B (-0.2 to below 0.04), bucket C (0.04 or more)

sequence-text: RRIRMRPPRLPRPRPRPVFEPRP
category-label: bucket C
--
sequence-text: RRIRQRPPRLPRPRPRPLFAPRP
category-label: bucket B
--
sequence-text: RRIRRRPPRLPRPRPRPYTHPRP
category-label: bucket A
--
sequence-text: RRIRIRPPRLPRPRPRPKRSPRP
category-label: bucket A
--
sequence-text: RRIRDRPPRLPRPRPRPNLAPRP
category-label: bucket B
--
sequence-text: RRIRKRPPRLPRPRPRPSTNPRP
category-label: bucket C
--
sequence-text: RRIRSRPPRLPRPRPRPIYAPRP
category-label: bucket C
--
sequence-text: RRIRRRPPRLPRPRPRPGEPPRP
category-label: bucket C
--
sequence-text: RRIRMRPPRLPRPRPRPFTEPRP
category-label: bucket C
--
sequence-text: RRIRNRPPRLPRPRPRPDTKPRP
category-label: bucket B
--
sequence-text: RRIRTRPPRLPRPRPRPELDPRP
category-label: bucket C
--
sequence-text: RRIRQRPPRLPRPRPRPHMYPRP
category-label: bucket A
--
sequence-text: RRIRQRPPRLPRPRPRPCDCPRP
category-label: bucket B
--
sequence-text: RRIRDRPPRLPRPRPRPAWQPRP
category-label: bucket C
--
sequence-text: RRIRIRPPRLPRPRPRPCGCPRP
category-label: bucket A
--
sequence-text: RRIRNRPPRLPRPRPRPMCPPRP
category-label: bucket B
--
sequence-text: RRIRYRPPRLPRPRPRPFTMPRP
category-label: bucket A
--
sequence-text: RRIRERPPRLPRPRPRPVCWPRP
category-label: bucket C
--
sequence-text: RRIRLRPPRLPRPRPRPFAKPRP
category-label: bucket B
--
sequence-text: RRIRMRPPRLPRPRPRPVEMPRP
category-label: bucket B
--
sequence-text: RRIRARPPRLPRPRPRPCSCPRP
category-label: bucket C
--
sequence-text: RRIRERPPRLPRPRPRPWFMPRP
category-label: bucket A
--
sequence-text: RRIRLRPPRLPRPRPRPHVGPRP
category-label: bucket A
--
sequence-text: RRIRNRPPRLPRPRPRPHCMPRP
category-label: bucket A

====

system: Escherichia coli TOP10; assay: shrunken log2 fold change of peptide-encoding DNA abundance (4.5 h post-induction vs induction); higher = less antimicrobial activity (less host growth inhibition); conditions: time post-induction: 4.5 h; library: site-saturation at positions 5, 18, 19, 20
measured-attribute: shrunken log2 fold change

sequence-text: RRIRCRPPRLPRPRPRPPPLPRP
result-value: 1.15

sequence-text: RRIRMRPPRLPRPRPRPCMNPRP
result-value: -0.217

sequence-text: RRIRDRPPRLPRPRPRPDPVPRP
result-value: 0.203

sequence-text: RRIRWRPPRLPRPRPRPGDDPRP
result-value: 0.351

sequence-text: RRIRNRPPRLPRPRPRPIFQPRP
result-value: -0.0287

sequence-text: RRIRWRPPRLPRPRPRPRCCPRP
result-value: 0.448

sequence-text: RRIRHRPPRLPRPRPRPWLKPRP
result-value: -0.185

sequence-text: RRIRERPPRLPRPRPRPRTDPRP
result-value: 0.193

sequence-text: RRIRTRPPRLPRPRPRPDVHPRP
result-value: 1.16

sequence-text: RRIRWRPPRLPRPRPRPGPVPRP
result-value: 0.423

sequence-text: RRIRLRPPRLPRPRPRPMLSPRP
result-value: 0.0192

sequence-text: RRIRIRPPRLPRPRPRPWKWPRP
result-value: -0.00992

sequence-text: RRIRFRPPRLPRPRPRPQHFPRP
result-value: 0.205

sequence-text: RRIRERPPRLPRPRPRPIYEPRP
result-value: -0.236

sequence-text: RRIRCRPPRLPRPRPRPCKNPRP
result-value: -0.194

sequence-text: RRIRCRPPRLPRPRPRPHAPPRP
result-value: 0.0482

sequence-text: RRIRNRPPRLPRPRPRPIMVPRP
result-value: 0.00732

sequence-text: RRIRMRPPRLPRPRPRPRHEPRP
result-value: 0.532

sequence-text: RRIRARPPRLPRPRPRPVFTPRP
result-value: -0.0343

sequence-text: RRIRARPPRLPRPRPRPMLEPRP
result-value: 0.455

sequence-text: RRIRWRPPRLPRPRPRPARSPRP
result-value: 0.252

sequence-text: RRIRYRPPRLPRPRPRPPLHPRP
result-value: -0.455

sequence-text: RRIRSRPPRLPRPRPRPKDGPRP
result-value: 0.307

sequence-text: RRIRHRPPRLPRPRPRPIEQPRP
result-value: -0.0277

sequence-text: RRIRERPPRLPRPRPRPFWLPRP
result-value: 0.463

sequence-text: RRIRYRPPRLPRPRPRPQEQPRP
result-value: -0.0134

sequence-text: RRIRLRPPRLPRPRPRPSFFPRP
result-value: -0.207

sequence-text: RRIRHRPPRLPRPRPRPTREPRP
result-value: 0.0175

sequence-text: RRIRGRPPRLPRPRPRPSIYPRP
result-value: 0.302

sequence-text: RRIRNRPPRLPRPRPRPTPTPRP
result-value: 0.674

sequence-text: RRIRRRPPRLPRPRPRPFIWPRP
result-value: 0.0601

sequence-text: RRIRNRPPRLPRPRPRPNCSPRP
result-value: 7.72e-05

sequence-text: RRIRWRPPRLPRPRPRPSSSPRP
result-value: 0.00035

sequence-text: RRIRTRPPRLPRPRPRPTHCPRP
result-value: 0.0158

sequence-text: RRIRRRPPRLPRPRPRPWNGPRP
result-value: -0.346

====

test system: Escherichia coli TOP10; test: shrunken log2 fold change of peptide-encoding DNA abundance (4.5 h post-induction vs induction); higher = less antimicrobial activity (less host growth inhibition); settings: time post-induction: 4.5 h; library: site-saturation at positions 5, 18, 19, 20
Answer NOT MET if shrunken log2 fold change is under -0.02, and MET if it is -0.02 or more.

sequence-text: RRIRTRPPRLPRPRPRPRSDPRP
target-under-test: Escherichia coli TOP10
category-label: MET
--
sequence-text: RRIRWRPPRLPRPRPRPHPIPRP
target-under-test: Escherichia coli TOP10
category-label: MET
--
sequence-text: RRIRRRPPRLPRPRPRPCCSPRP
target-under-test: Escherichia coli TOP10
category-label: MET
--
sequence-text: RRIRSRPPRLPRPRPRPKVLPRP
target-under-test: Escherichia coli TOP10
category-label: MET
--
sequence-text: RRIRDRPPRLPRPRPRPNTMPRP
target-under-test: Escherichia coli TOP10
category-label: NOT MET
--
sequence-text: RRIRKRPPRLPRPRPRPMNSPRP
target-under-test: Escherichia coli TOP10
category-label: MET
--
sequence-text: RRIRVRPPRLPRPRPRPIINPRP
target-under-test: Escherichia coli TOP10
category-label: NOT MET
--
sequence-text: RRIRTRPPRLPRPRPRPNATPRP
target-under-test: Escherichia coli TOP10
category-label: MET
--
sequence-text: RRIRVRPPRLPRPRPRPIPVPRP
target-under-test: Escherichia coli TOP10
category-label: NOT MET
--
sequence-text: RRIRFRPPRLPRPRPRPMAFPRP
target-under-test: Escherichia coli TOP10
category-label: NOT MET
--
sequence-text: RRIRFRPPRLPRPRPRPTFMPRP
target-under-test: Escherichia coli TOP10
category-label: NOT MET
--
sequence-text: RRIRPRPPRLPRPRPRPAVRPRP
target-under-test: Escherichia coli TOP10
category-label: NOT MET
--
sequence-text: RRIRCRPPRLPRPRPRPSWYPRP
target-under-test: Escherichia coli TOP10
category-label: NOT MET
--
sequence-text: RRIRERPPRLPRPRPRPNASPRP
target-under-test: Escherichia coli TOP10
category-label: NOT MET
--
sequence-text: RRIRKRPPRLPRPRPRPWCQPRP
target-under-test: Escherichia coli TOP10
category-label: MET
--
sequence-text: RRIRNRPPRLPRPRPRPNQGPRP
target-under-test: Escherichia coli TOP10
category-label: NOT MET
--
sequence-text: RRIRERPPRLPRPRPRPHDPPRP
target-under-test: Escherichia coli TOP10
category-label: NOT MET
--
sequence-text: RRIRPRPPRLPRPRPRPAWNPRP
target-under-test: Escherichia coli TOP10
category-label: MET
--
sequence-text: RRIRDRPPRLPRPRPRPAVVPRP
target-under-test: Escherichia coli TOP10
category-label: MET
--
sequence-text: RRIRRRPPRLPRPRPRPWKWPRP
target-under-test: Escherichia coli TOP10
category-label: MET
--
sequence-text: RRIRCRPPRLPRPRPRPYNIPRP
target-under-test: Escherichia coli TOP10
category-label: NOT MET
--
sequence-text: RRIRTRPPRLPRPRPRPNLLPRP
target-under-test: Escherichia coli TOP10
category-label: NOT MET
--
sequence-text: RRIRERPPRLPRPRPRPMLYPRP
target-under-test: Escherichia coli TOP10
category-label: NOT MET
--
sequence-text: RRIRHRPPRLPRPRPRPRWNPRP
target-under-test: Escherichia coli TOP10
category-label: NOT MET
--
sequence-text: RRIRNRPPRLPRPRPRPSRDPRP
target-under-test: Escherichia coli TOP10
category-label: NOT MET
--
sequence-text: RRIRCRPPRLPRPRPRPKAKPRP
target-under-test: Escherichia coli TOP10
category-label: MET
--
sequence-text: RRIRLRPPRLPRPRPRPGEMPRP
target-under-test: Escherichia coli TOP10
category-label: MET
--
sequence-text: RRIRPRPPRLPRPRPRPSTSPRP
target-under-test: Escherichia coli TOP10
category-label: NOT MET
--
sequence-text: RRIRKRPPRLPRPRPRPHCNPRP
target-under-test: Escherichia coli TOP10
category-label: NOT MET
--
sequence-text: RRIRGRPPRLPRPRPRPQNPPRP
target-under-test: Escherichia coli TOP10;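 further: peptides expressed intracellularly from a pBAD plasmid library in pooled LB shake-flask culture, induced with 0.3% L-arabinose, DNA abundance read by NGS, three biological replicates, DESeq2 with apeglm shrinkage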
category-label: MET
